Test system: aqueous humor formation and intraocular pressure
Assay info: Studies of ability to reduce aqueous humor formation and intraocular pressure in rabbits and cats
Condition context: rabbit, in vivo
Endpoint name: reduction of aqueous humor formation and intraocular pressure

- O=C(CCCN1CCC(O)(c2ccc(Cl)cc2)CC1)c1ccc(F)cc1 [Haloperidol]: reduce significantly
- NC(=O)C1(N2CCCCC2)CCN(CCCC(=O)c2ccc(F)cc2)CC1 [Floropipamide]: reduce significantly
- O=C(CCCN1CCC(O)(c2ccc(Cl)c(C(F)(F)F)c2)CC1)c1ccc(F)cc1 [Clofluperol]: reduce significantly
- Cc1ccc(C2(O)CCN(CCCC(=O)c3ccc(F)cc3)CC2)cc1 [Moperone]: reduce significantly

We now examine a further compound.
Please fill in: reduction of aqueous humor formation and intraocular pressure reported for O=C(CCCN1CCC(C(=O)c2ccc(F)cc2)CC1)c1ccc(F)cc1 [Lenperone] = reduce significantly
